tested on: primary rat microglia; test: Cell toxicity (dead cells, size <150 μm2) in coated fibrin (cFib) assay; conditions: primary HTS, 10 μM, fibrin assay, dead cells size <150 μm2;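 note: share of dead cells sized under 150 µm2 at 10 µM in fibrin-stimulated microglia HTS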
Structures can show the parent of a compound that is named as a salt.
reported_metric: Fibrin % cell toxicity (%)

| molecule | study_target | reported_metric | quantitative_result |
| --- | --- | --- | --- |
| CC1(C)S[C@@H]2[C@H](NC(=O)Cc3ccccc3)C(=O)N2[C@H]1C(=O)O | primary rat microglia | Fibrin % cell toxicity | 1 |
| COc1cc(CNC(=O)CCCC/C=C/C(C)C)ccc1O | primary rat microglia | Fibrin % cell toxicity | 1 |
| CN(Cc1ccc(C(C)(C)C)cc1)Cc1cccc2ccccc12 | primary rat microglia | Fibrin % cell toxicity | 1 |
| C=C1/C(=C\C=C2/CCC[C@]3(C)[C@@H]([C@H](C)/C=C/[C@@H](O)C4CC4)CC[C@@H]23)C[C@@H](O)C[C@@H]1O | primary rat microglia | Fibrin % cell toxicity | 1 |
| CCCCOC(=O)c1ccc(O)cc1 | primary rat microglia | Fibrin % cell toxicity | 1 |
| CC(C)CCC[C@@H](C)[C@H]1CC[C@H]2[C@@H]3CC=C4C[C@@H](O)CC[C@]4(C)[C@H]3CC[C@]12C | primary rat microglia | Fibrin % cell toxicity | 0 |
| C=CC1=C(C(=O)O)N2C(=O)[C@@H](NC(=O)/C(=N\OCC(=O)O)c3csc(N)n3)[C@H]2SC1 | primary rat microglia | Fibrin % cell toxicity | 1 |
| Cc1cc(O)cc(C)c1Cl | primary rat microglia | Fibrin % cell toxicity | 1 |
| Cc1onc(-c2ccccc2Cl)c1C(=O)N[C@@H]1C(=O)N2[C@@H]1SC(C)(C)[C@@H]2C(=O)O | primary rat microglia | Fibrin % cell toxicity | 1 |
| Cn1nnnc1SCC1=C(C(=O)O)N2C(=O)[C@@H](NC(=O)[C@H](O)c3ccccc3)[C@H]2SC1 [Cefamandole Sodium] | primary rat microglia | Fibrin % cell toxicity | 1 |
| NCc1ccccc1CC(=O)N[C@@H]1C(=O)N2C(C(=O)O)=C(CSc3nnnn3CC(=O)O)CS[C@H]12 [Ceforanide] | primary rat microglia | Fibrin % cell toxicity | 1 |
| Cl.NC1CCN(c2c(F)cc3c(=O)c(C(=O)O)cn(C4CC4)c3c2Cl)C1 (stereo not shown) [Clinafoxacin Hydrochloride] | primary rat microglia | Fibrin % cell toxicity | 0 |
| Cc1cc(O)ccc1Cl | primary rat microglia | Fibrin % cell toxicity | 1 |
| CC(C)C[C@H]1C(=O)N2CCC[C@H]2[C@]2(O)O[C@](NC(=O)[C@@H]3C=C4c5cccc6[nH]c(Br)c(c56)C[C@H]4N(C)C3)(C(C)C)C(=O)N12 [Bromocriptine Mesylate] | primary rat microglia | Fibrin % cell toxicity | 1 |
| CCCC(C)(COC(N)=O)COC(=O)NC(C)C (stereo not shown) | primary rat microglia | Fibrin % cell toxicity | 0 |
| O=C1c2ccccc2C(=O)C1c1ccc(Br)cc1 | primary rat microglia | Fibrin % cell toxicity | 1 |
| CN(C)CCOC(c1ccc(Cl)cc1)c1ccccn1 (stereo not shown) | primary rat microglia | Fibrin % cell toxicity | 0 |
| CC(C)(O)C(Cl)(Cl)Cl | primary rat microglia | Fibrin % cell toxicity | 1 |
| CN(C)CC/C=C1/c2ccccc2Sc2ccc(Cl)cc21 | primary rat microglia | Fibrin % cell toxicity | 1 |
| CO/N=C(\C(=O)N[C@@H]1C(=O)N2C(C(=O)O)=C(COC(C)=O)CS[C@H]12)c1csc(N)n1 [Cefotaxime Sodium] | primary rat microglia | Fibrin % cell toxicity | 0 |
| C[C@H](CS)C(=O)N1CCC[C@H]1C(=O)O | primary rat microglia | Fibrin % cell toxicity | 1 |
| CN(C)CCCC1(c2ccc(F)cc2)OCc2cc(C#N)ccc21 (stereo not shown) | primary rat microglia | Fibrin % cell toxicity | 0 |

Hello, the source for this data is patent US20210330611A1, in case you need it.
